FYI, the data here is from patent US6914045B2.

Measured MIC Streptococcus pyogenes (GC 4563) of individual entries
Tested on: Streptococcus sp.
method: in vitro antibacterial evaluation, MIC by broth dilution
Type: cell-based
assayContext: broth dilution, 18 hours at 35° C.
measureName: MIC Streptococcus pyogenes (GC 4563) (µg/mL)

>>> reportedmeasurement("COc1ccc(COCC2OC(OC3C(CO)OC(Oc4ccc(CC5NC(=O)C(C(C)c6ccccc6)NC(=O)CNC(=O)C(CO)NC(=O)C(C(O)C6CNC(=N)N6C6OC(CO)C(O)C(O)C6O)NC(=O)C(C(O)C6CNC(=N)N6)NC5=O)cc4)C(O)C3O)C(O)C(O)C2O)cc1F (stereo not shown)")
1
>>> reportedmeasurement("CCOc1cc(COCC2OC(OC3C(CO)OC(Oc4ccc(CC5NC(=O)C(C(C)c6ccccc6)NC(=O)CNC(=O)C(CO)NC(=O)C(C(O)C6CNC(=N)N6C6OC(CO)C(O)C(O)C6O)NC(=O)C(C(O)C6CNC(=N)N6)NC5=O)cc4)C(O)C3O)C(O)C(O)C2O)ccc1OC (stereo not shown)")
1
>>> reportedmeasurement("CC(c1ccccc1)C1NC(=O)CNC(=O)C(CO)NC(=O)C(C(O)C2CNC(=N)N2C2OC(CO)C(O)C(O)C2O)NC(=O)C(C(O)C2CNC(=N)N2)NC(=O)C(Cc2ccc(OC3OC(CO)C(OC4OC5COC6(CCCCCCCCCCCC6)OC5C(O)C4O)C(O)C3O)cc2)NC1=O (stereo not shown)")
2
